Items are presented alongside their recorded melting point.
# particulars: a range is the spread between reports

Please review the entries below; each comes with its answer.
CC[C@H]1CC[C@H]2[C@@H]3CC[C@@H]4CCCC[C@]4(C)[C@H]3CC[C@]12C :: 83.5 to 84.5 °C
COc1cccc(Cl)c1Cl :: 31 to 32 °C
NNC(=O)c1ccc(N)cc1 :: 226 to 228 °C

Ask: // melting point lookup, key: `CCCCCCCC(=O)O`
Reply: 15.8 to 17 °C

Ask: // melting point lookup, key: `CCCCCCCCCCCCCC(=O)CCCCCCCCCCCCC`
Reply: 77.5 to 78 °C

Ask: // melting point lookup, key: `NNC(=O)c1ccc(Br)cc1`
Reply: 166 to 168 °C

Ask: // melting point lookup, key: `c1ccc2c(c1)OCCOCCOc1ccccc1OCCOCCO2`
Reply: 162 to 163 °C

Ask: // melting point lookup, key: `Cc1ccnc(N)n1`
Reply: 160 °C

Ask: // melting point lookup, key: `COc1ccc(C=O)cc1OC`
Reply: 43 to 44 °C

Ask: // melting point lookup, key: `Cc1cc(Cl)ccc1O`
Reply: 47 to 51 °C

Ask: // melting point lookup, key: `C1CCC1`
Reply: -91 to -90.6 °C

Ask: // melting point lookup, key: `NCCCCNCCCN`
Reply: 23.5 to 24 °C

Ask: // melting point lookup, key: `ClC(Cl)C(Cl)(Cl)Cl`
Reply: -29 to -28.8 °C

Ask: // melting point lookup, key: `Oc1ccc2ccccc2c1`
Reply: 122 to 123 °C

Ask: // melting point lookup, key: `C=CC(CC)CC`
Reply: -128 to -127 °C

Data origin: a melting point compilation (Tetko et al.)
